Assay: Permeability across basolateral to apical side in human Caco-2 cells incubated for 120 mins by LC-MS/MS analysis
Format: ADME, cell-based
Settings: read-out: permeability
READOUT_NAME: Papp B→A at 2 h (×10⁻⁶ cm/s)
Reply numerically in ×10⁻⁶ cm/s, unit not repeated.

Q) Give the measured Papp B→A at 2 h for Cn1c(=O)n(C2CCC(=O)NC2=O)c2cccc(C#CCO[C@H]3CC[C@H](CN4CCC5(CC4)Cc4cc(NC(=O)c6coc7cccnc67)c(N6CCC(CO)CC6)cc4O5)CC3)c21 (stereo partly specified)
A) 0.2

###

Listed here are compounds together with their documented half-life.
Experiment: Half life in Sprague-Dawley rat at 2 mg/kg, iv measured up to 24 hrs by LC-MS/MS analysis
Assay type: ADME, organism-based
Details: in vivo
Reply numerically in h, unit not repeated.

// below: answered compounds
COMPOUND	UNIT_SYMBOL	half-life
Cn1c(=O)n(C2CCC(=O)NC2=O)c2cccc(C#CCO[C@H]3CC[C@H](CN4CCC5(CC4)Cc4cc(NC(=O)c6coc7cccnc67)c(N6CCC(CO)CC6)cc4O5)CC3)c21 (some centres undefined)	h	4
Cn1c(=O)n(C2CCC(=O)NC2=O)c2cccc(C#CCO[C@H]3CC[C@H](CN4CCC5(CC4)Cc4cc(NC(=O)c6cnn7cc(F)cnc67)c(N6CCC(CO)CC6)cc4O5)CC3)c21 (some centres undefined)	h	3.14
Cn1c(=O)n(C2CCC(=O)NC2=O)c2cccc(C#CCO[C@H]3CC[C@H](CN4CCC5(CC4)Cc4cc(NC(=O)c6cnn7cccnc67)c(N6CCC(CO)CC6)cc4O5)CC3)c21 (some centres undefined)	h	3.94

Q) Give the measured half-life for Cn1c(=O)n(C2CCC(=O)NC2=O)c2cccc(C#CCO[C@H]3CC[C@H](CN4CCC5(CC4)Cc4cc(NC(=O)c6cnn7cccnc67)c(N6CCC(O)CC6)cc4O5)CC3)c21 (some centres undefined)
A) 2.42

###

Target: Protein cereblon/Interleukin-1 receptor-associated kinase 4 (Homo sapiens, UniProt Q9NWZ3+Q96SW2)
Sequence (Q9NWZ3 whole entry): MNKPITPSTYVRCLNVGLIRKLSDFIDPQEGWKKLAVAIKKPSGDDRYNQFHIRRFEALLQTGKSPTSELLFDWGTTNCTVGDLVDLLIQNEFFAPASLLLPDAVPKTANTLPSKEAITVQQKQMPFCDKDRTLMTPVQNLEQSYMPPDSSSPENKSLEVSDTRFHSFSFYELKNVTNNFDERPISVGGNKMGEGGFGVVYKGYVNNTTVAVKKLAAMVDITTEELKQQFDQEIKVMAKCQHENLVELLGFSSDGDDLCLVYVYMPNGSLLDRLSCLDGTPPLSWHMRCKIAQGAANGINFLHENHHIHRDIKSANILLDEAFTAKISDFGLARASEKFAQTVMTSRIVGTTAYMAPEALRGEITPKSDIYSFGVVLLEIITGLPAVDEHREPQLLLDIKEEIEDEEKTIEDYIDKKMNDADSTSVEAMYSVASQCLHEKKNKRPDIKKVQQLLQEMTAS
Sequence (Q96SW2 whole entry): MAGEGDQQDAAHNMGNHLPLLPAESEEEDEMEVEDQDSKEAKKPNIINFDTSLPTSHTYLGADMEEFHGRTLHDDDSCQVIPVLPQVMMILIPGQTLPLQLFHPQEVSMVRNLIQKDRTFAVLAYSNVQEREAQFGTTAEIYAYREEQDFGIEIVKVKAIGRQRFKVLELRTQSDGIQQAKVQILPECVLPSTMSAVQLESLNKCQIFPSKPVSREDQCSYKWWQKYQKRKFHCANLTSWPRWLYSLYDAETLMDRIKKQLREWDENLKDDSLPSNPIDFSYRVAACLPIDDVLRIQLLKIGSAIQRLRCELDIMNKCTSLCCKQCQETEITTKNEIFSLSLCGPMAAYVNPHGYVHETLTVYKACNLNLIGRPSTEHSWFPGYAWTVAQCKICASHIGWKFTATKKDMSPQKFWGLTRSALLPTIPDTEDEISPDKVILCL
Assay: PROTAC activity at CRBN/IRAK4 in human THP-1 cells assessed as induction of IRAK4 degradation incubated for 24 hrs by HiBiT lytic reagent based analysis
Type: cell-based
I'd appreciate it if you marked entries class 1 when DC50 is lower than 2 nM and class 0 when it is not.

Look over these answered cases.
COMPOUND	CATEGORY
Cn1c(=O)n(C2CCC(=O)NC2=O)c2cccc(CCCOCCNCCN3CCC4(CC3)Cc3cc(NC(=O)c5cnn6cccnc56)c(N5CCC(CO)CC5)cc3O4)c21 (stereo unspecified)	class 1
Cn1c(=O)n(C2CCC(=O)NC2=O)c2cccc(C#CCO[C@H]3CC[C@H](CN4CCC5(CC4)Cc4cc(NC(=O)c6cnn7cccnc67)c(OCCC(C)(C)O)cc4O5)CC3)c21 (stereo partly specified)	class 0
Cn1c(=O)n(C2CCC(=O)NC2=O)c2cccc(C#CCO[C@H]3CC[C@H](CN4CCC5(CC4)Cc4cc(NC(=O)c6cnn7cc(F)cnc67)c(N6CCC(CO)CC6)cc4O5)CC3)c21 (stereo partly specified)	class 0
CN(CCO)c1cc2c(cc1NC(=O)c1cnn3cccnc13)CC1(CCN(C[C@H]3CC[C@H](OCC#Cc4cccc5c4n(C)c(=O)n5C4CCC(=O)NC4=O)CC3)CC1)O2 (stereo partly specified)	class 0
Cn1c(=O)n(C2CCC(=O)NC2=O)c2cccc(C#CCO[C@H]3CC[C@H](CN4CCC5(CC4)Cc4cc(NC(=O)c6cnn7cccnc67)c(N6CCC(C(=O)O)CC6)cc4O5)CC3)c21 (stereo partly specified)	class 0
Cn1c(=O)n(C2CCC(=O)NC2=O)c2cccc(C#CCO[C@H]3CC[C@H](CN4CCC5(CC4)Cc4cc(NC(=O)c6cnn7cc(Cl)cnc67)c(N6CCC(CO)CC6)cc4O5)CC3)c21 (stereo partly specified)	class 0

We now examine a further compound.
Q) Dear reviewer, please state whether Cn1c(=O)n(C2CCC(=O)NC2=O)c2cccc(C#CCOCCNCCN3CCC4(CC3)Cc3cc(NC(=O)c5cnn6cccnc56)c(N5CCC(CO)CC5)cc3O4)c21 (stereo unspecified) has DC50 strictly beneath 2 nM.
A) class 1
